I'd appreciate it if you could supply Hoechst 33342 nuclear staining score values for the items below.
tested on: adherent cells or suspension cells; test: Hoechst 33342 nuclear staining (fraction of apoptotic nuclei); assay type: cell-based; design: key: 0 relating to no activity; 1 relating to weak activity comprising less than 70% of the cells; score 2 relating to strong activity comprising more than 70% of the cells; settings: HeLa, conc 0.01 μm
One number for each entry.

Guide cases for Hoechst 33342 nuclear staining score, answers given:
{"columns": ["COMPOUND", "READOUT_NUMBER"],
 "data": [
  ["CNc1nonc1-c1nc2ccccc2n1CC(=O)c1ccc(Cl)cc1 [Example 3]", 0],
  ["CCc1ccc(C(=O)Cn2c(-c3nonc3NCCC#N)nc3ccccc32)cc1 [Example 56]", 0]
]}

List the reported Hoechst 33342 nuclear staining score of each compound below.
1. N#Cc1ccc(C(=O)Cn2c(-c3nonc3N)nc3ccccc32)cc1 [Example 63]
2. Nc1nonc1-c1nc2ccccc2n1CC(=O)/C=C/c1ccccc1 [Example 12]
3. COc1cc(C(=O)Cn2c(-c3nonc3N)nc3ccccc32)ccc1OC(C)=O [Example 75]
4. COc1ccc(OCn2c(-c3nonc3N)nc3ccccc32)cc1 [Example 90]
5. Cc1ccc(C(=O)Cn2c(-c3nonc3N)nc3ccccc32)cc1C [Example 53]
6. COC(=O)CCNc1nonc1-c1nc2ccccc2n1CC(=O)c1ccc(Cl)cc1 [Example 9]

Result:
[0, 0, 0, 0, 0, 0]

====

Give measured IC50 for each item. Keep answers brief.
Test system: HT1080
Test: MTS proliferation assay, HT1080
Format: cell-based, human
Details: HT1080, 72 h incubation; read-out: MTS proliferation assay IC 50 HT1080
Description: Cell lines are cultured in RPMI-1640 tissue culture medium containing either 5% or 10% fetal calf serum, 0.05 mM 2-mercaptoethanol, 2 mM glutamine and penicillin/streptomycin 50 μg/ml (complete medium) (Sigma, Buchs, Switzerland). General growth conditions are 37° C. and 7.5% CO2. […] The assay is performed in 96 well tissue culture plates. […] Subsequently, the plates are shortly shaked and absorption measured with a microplate-reader at 492 nm.

Illustrative cases are given below, each with its answer.
{"columns": ["COMPOUND", "IC50"],
 "data": [
  ["Nc1nonc1-c1nc2ccccc2n1CC(=O)c1cccc(Cl)c1 [Example 35]", "100 to 1000 nM"],
  ["Nc1nonc1-c1nc2ccccc2n1CC1CC1 [B, reference compound]", "> 1000 nM"],
  ["Nc1ccc(C(=O)Cn2c(-c3nonc3N)nc3ccccc32)cc1 [Example 50]", "10 to 100 nM"],
  ["Cc1cc2nc(-c3nonc3N)n(CC(=O)c3ccccc3)c2cc1C [Example 108]", "100 to 1000 nM"],
  ["COc1cc2nc(-c3nonc3N)n(CC(=O)c3ccc(Cl)cc3)c2cc1OC [Example 114]", "> 1000 nM"],
  ["Nc1nonc1-c1nc2ccccc2n1CC(=O)c1cc(F)ccc1F [Example 71]", "> 1000 nM"],
  ["N#CCCNc1nonc1-c1nc2ccccc2n1CC(=O)c1ccc2ccccc2c1 [Example 46]", "10 to 100 nM"],
  ["Nc1nonc1-c1nc2ccccc2n1COc1cccc(C(F)(F)F)c1 [Example 103]", "100 to 1000 nM"]
]}

GET /value?item= Nc1nonc1-c1nc2ccccc2n1COc1ccc(Cl)c(Cl)c1 [Example 92] &field=IC50 returns 10 to 100 nM
